Taken from paper PMC4264199.

For each record, write down the corresponding Percent inhibition of DPP-IV activity, SPOT-synthesized deca-peptides.
target_or_test_system: dipeptidyl-peptidase IV (DPP-IV) (Homo sapiens, UniProt P27487)
Construct: purchased Creative BioMart (Shirley, NY, USA); host or cells: HEK293 human cells
Sequence (P27487 whole entry): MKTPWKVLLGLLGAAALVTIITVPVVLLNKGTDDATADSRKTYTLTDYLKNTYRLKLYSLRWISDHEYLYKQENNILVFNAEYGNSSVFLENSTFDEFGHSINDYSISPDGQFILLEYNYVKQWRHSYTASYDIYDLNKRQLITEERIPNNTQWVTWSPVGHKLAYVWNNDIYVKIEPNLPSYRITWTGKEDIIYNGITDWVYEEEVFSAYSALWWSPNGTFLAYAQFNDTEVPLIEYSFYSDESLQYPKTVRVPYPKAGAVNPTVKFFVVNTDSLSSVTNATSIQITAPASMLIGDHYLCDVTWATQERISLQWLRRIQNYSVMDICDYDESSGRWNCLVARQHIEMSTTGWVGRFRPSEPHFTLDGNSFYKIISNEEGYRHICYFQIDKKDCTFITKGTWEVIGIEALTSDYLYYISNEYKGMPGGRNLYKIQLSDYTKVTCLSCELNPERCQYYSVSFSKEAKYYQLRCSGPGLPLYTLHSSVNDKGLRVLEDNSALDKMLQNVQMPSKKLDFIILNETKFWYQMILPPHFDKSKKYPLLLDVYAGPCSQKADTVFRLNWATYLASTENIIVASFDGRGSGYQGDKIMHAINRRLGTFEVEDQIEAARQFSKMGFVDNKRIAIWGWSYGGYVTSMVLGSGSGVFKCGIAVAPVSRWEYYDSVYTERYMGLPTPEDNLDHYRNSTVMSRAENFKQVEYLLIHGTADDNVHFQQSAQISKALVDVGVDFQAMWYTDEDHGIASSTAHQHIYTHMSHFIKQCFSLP
experiment_description: DPP-IV inhibition assay on SPOT-synthesized peptides (cleaved from cellulose membrane)
Type: biochemical
setup_conditions: peptides cleaved from cellulose membrane, concentration not known (semi-quantitative); averages of four determinations from two experiments
Ends that are not written are not given here.
Write down the numeric answer in % and omit the unit.

Recorded Percent inhibition of DPP-IV activity, SPOT-synthesized deca-peptides of NNKIWCKDDQ [F1] , please.
22

Reported Percent inhibition of DPP-IV activity, SPOT-synthesized deca-peptides for VFRELKDLKG [A8, VFRELKDLKG] : what is it?
14

// lookup Percent inhibition of DPP-IV activity, SPOT-synthesized deca-peptides for B1: α-lactalbumin-derived deca-peptide, residues 12–21 (Table S1) (LKDLKGYGGV; UniProt P00711 31-40, looked up, fragment)
11

Name the recorded Percent inhibition of DPP-IV activity, SPOT-synthesized deca-peptides for HTSGYDTQAI [C10] .
11

If you can, please state the reported Percent inhibition of DPP-IV activity, SPOT-synthesized deca-peptides value of B3: α-lactalbumin-derived deca-peptide, residues 14–23 (Table S1) (DIDGYGGIAL; UniProt P00709 33-42, looked up, fragment) .
13

Consider the substance NPHSSNICNI [F11, NPHSSNICNI] and give its measured Percent inhibition of DPP-IV activity, SPOT-synthesized deca-peptides.
15

// query Percent inhibition of DPP-IV activity, SPOT-synthesized deca-peptides value for entry A2: α-lactalbumin-derived deca-peptide, residues 2–11 (Table S1) (QFTKCELSQL; UniProt P00709 21-30, looked up, fragment)
16

Quick check: Percent inhibition of DPP-IV activity, SPOT-synthesized deca-peptides of I11: α-lactalbumin-derived deca-peptide, residues 99–108 (Table S1) (VGINYWLAHK; UniProt P00711 118-127, looked up, fragment) ?
20
